measured-on: UCHL1, P09936
Sequence (P09936 whole entry, looked up, the tested form may be a part): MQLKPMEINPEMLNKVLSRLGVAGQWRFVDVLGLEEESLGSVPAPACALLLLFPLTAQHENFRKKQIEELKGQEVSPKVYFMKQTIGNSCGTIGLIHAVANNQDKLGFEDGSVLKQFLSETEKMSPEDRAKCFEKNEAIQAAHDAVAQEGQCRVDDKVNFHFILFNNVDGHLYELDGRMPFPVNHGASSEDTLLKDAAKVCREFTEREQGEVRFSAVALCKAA
procedure-text: median log2 fold change of GCK-ALFA target abundance (FLAG IP / Myc IP barcode read proportion) (log2 ratio); each designed protein is fused to an ALFA-tag nanobody in HEK293 cells to bring the named protein to FLAG-tagged glucokinase (GCK); Myc marks an untargeted standard; higher = target protein stabilised (more abundant)
conditions-used: target protein: 3xFLAG-MCP-GCK-ALFA reporter; HEK293 landing pad (RPLP)
median log2 fold change reference
endpoint-name: median log2 fold change

binder	endpoint-name	reading
uchl1_155_7498 (protein) GTTVTVTATGTAADGTVVTSTTTFTGLTSSVADMQALQAAILAQLLAVAAQVDGDIDLAVTVSNATANQAVGIGTAVRRAASQAGKQTGLTINVTLTGAP	median log2 fold change	0.16
uchl1_89_7581 (protein) EAARLERAKAKLRAVLAATRAALDRLIARLGEPDPALVAARDALFAAAEAAIADPARAAEYLARAEAAARRLVELAPPERRASFRLAAGRLVNTLLGFAA	median log2 fold change	-0.302
uchl1_89_7583 (protein) EEEREAAARARLRAILAATRAALERLIARWGVRDPEAQAALDALFANAERAIADPSTAAEALAKAEEAARRLLALAPPEKRADVRLATGRLLNALLGYVA	median log2 fold change	-0.0264
uchl1_2_7566 (protein) ETVFVGVKVTLTSYDEKTGKTYKSTRTLIFTESSIDAAVEEIRELALSFREQVGVPVKVEIHIVSTREEVLERLKEKLEEMAEELKEEGIEVEISGEVVK	median log2 fold change	-0.335
